Known pEC50 of a selection of binders
- target_of_assay: T1, human Trop-2 (on the surface of human cell lines) (human, UniProt P09758 27-323)
- T1 construct: Endogenous Trop-2 on NCI-H322, Capan-1, PC-3, HUVEC, OVCAR-3, HCC38 and HCC1806 cells; also called TACSTD2
- T1 sequence: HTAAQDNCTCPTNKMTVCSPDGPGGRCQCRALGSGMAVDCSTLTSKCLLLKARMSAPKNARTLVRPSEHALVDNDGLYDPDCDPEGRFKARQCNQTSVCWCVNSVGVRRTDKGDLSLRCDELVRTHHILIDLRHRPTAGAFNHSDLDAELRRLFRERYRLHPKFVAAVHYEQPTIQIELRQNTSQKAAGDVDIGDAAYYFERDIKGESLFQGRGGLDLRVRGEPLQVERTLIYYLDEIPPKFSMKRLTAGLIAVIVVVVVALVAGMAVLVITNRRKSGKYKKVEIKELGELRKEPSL
- protocol_summary: flow cytometry, OVCAR-3 cells
// pEC50: -log10(molar conc.)

binder: hz-Ab35-2.1 (antibody, human IgG1, kappa, V domains shown, Humanized antibody) VH: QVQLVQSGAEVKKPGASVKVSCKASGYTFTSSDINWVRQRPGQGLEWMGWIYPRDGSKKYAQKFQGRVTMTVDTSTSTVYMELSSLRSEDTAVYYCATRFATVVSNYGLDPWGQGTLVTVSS VL: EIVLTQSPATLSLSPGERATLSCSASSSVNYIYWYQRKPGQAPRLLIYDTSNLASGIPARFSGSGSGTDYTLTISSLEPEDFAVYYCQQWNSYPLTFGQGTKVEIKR
pEC50: 9.05
--
binder: hz-Ab35-2.3 (antibody, human IgG1, kappa, V domains shown, Humanized antibody) VH: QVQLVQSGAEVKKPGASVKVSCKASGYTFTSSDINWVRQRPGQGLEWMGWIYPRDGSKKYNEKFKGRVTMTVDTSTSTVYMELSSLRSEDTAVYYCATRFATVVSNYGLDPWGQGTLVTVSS VL: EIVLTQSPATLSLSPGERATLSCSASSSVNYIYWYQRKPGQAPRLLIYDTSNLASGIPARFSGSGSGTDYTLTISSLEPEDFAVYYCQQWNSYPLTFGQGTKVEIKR
pEC50: 9.13

Proceed to the following item.
Returns the measured pEC50 for the input binder. Input: hz-Ab35-2.2 (antibody, human IgG1, kappa, V domains shown, Humanized antibody) VH: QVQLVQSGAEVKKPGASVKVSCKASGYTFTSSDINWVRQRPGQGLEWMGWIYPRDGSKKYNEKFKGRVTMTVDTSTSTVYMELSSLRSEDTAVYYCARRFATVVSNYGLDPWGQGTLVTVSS VL: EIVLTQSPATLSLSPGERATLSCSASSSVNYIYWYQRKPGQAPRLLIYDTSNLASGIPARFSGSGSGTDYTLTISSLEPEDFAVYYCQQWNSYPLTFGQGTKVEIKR
9.06

The values you see were collected from patent US20250034275A1.
